# credit: the supplement of paper PMC10567573

B1: FAM189A2 (parent)
chain: GSEAAVIPLDLGCTQVTQDGDIPN

Variants of: B1
Assay: protein stability index of a GFP-peptide fusion (GPS, HEK-293T) (PSI 1-6); higher = more stable;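 further: lentivirally expressed fusions sorted by FACS into six bins by GFP to DsRed ratio, PSI derived from sequencing read proportions per bin multiplied by bin number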
Conditions: c terminus: a fixed tail appended
Label yes (1) when protein stability index is at or above 5; anything below gets no (0).

I'd appreciate it if you could say whether GSEAAVIPIDLGCTQVTQDGDIPN has protein stability index at least equal to 5.
yes (1)

Now give it for GSEYAVIPLDLGCTQVTQDGDIPN too.
no (0)

Now give it for GSEAAVIPLDLGCTQVTQDNDIPN too.
yes (1)

Now give it for GSEAAVIPLDDGCTQVTQDGDIPN too.
yes (1)

Now give it for GSEAAVIPLDLGCVQVTQDGDIPN too.
yes (1)

Now give it for NSEAAVIPLDLGCTQVTQDGDIPN too.
yes (1)

Now give it for FSEAAVIPLDLGCTQVTQDGDIPN too.
no (0)

Now give it for GSEAAVIPSDLGCTQVTQDGDIPN too.
yes (1)

Now give it for GSEAAVIPLDLGCTQVTEDGDIPN too.
yes (1)

Now give it for GSEAAVIPLDLGNTQVTQDGDIPN too.
yes (1)

Now give it for GSQAAVIPLDLGCTQVTQDGDIPN too.
yes (1)

Now give it for GSEAAVKPLDLGCTQVTQDGDIPN too.
yes (1)

Now give it for GSEAAVIPLDLGCTQVTQDGDIPH too.
yes (1)

Now give it for GDEAAVIPLDLGCTQVTQDGDIPN too.
yes (1)

Now give it for GSEAAVIPLDLGCSQVTQDGDIPN too.
yes (1)

Now give it for GSEAAVIPLDLGCAQVTQDGDIPN too.
yes (1)

Now give it for GSEAAVIPLDLGITQVTQDGDIPN too.
yes (1)

Now give it for QSEAAVIPLDLGCTQVTQDGDIPN too.
yes (1)

Now give it for GSEADVIPLDLGCTQVTQDGDIPN too.
yes (1)

Now give it for GSEAAVIPLKLGCTQVTQDGDIPN too.
no (0)

Now give it for GSEAAVIPLDLGCEQVTQDGDIPN too.
yes (1)

Now give it for GSEAAVIPLWLGCTQVTQDGDIPN too.
no (0)

Now give it for GSEAAVIPLELGCTQVTQDGDIPN too.
yes (1)

Now give it for GSEAAPIPLDLGCTQVTQDGDIPN too.
yes (1)
